- tgt: PI3K delta (Homo sapiens, UniProt O00329)
- Construct: for the full-length p110-d subunit are generated and fused by overlapping PCR; His tag (C); made in house; host or cells: baculovirus BV1060; Tn5 (Trichoplusia ni) or TiniPro insect cells
- Sequence (O00329 with tags, fused parts or gaps limits assumed): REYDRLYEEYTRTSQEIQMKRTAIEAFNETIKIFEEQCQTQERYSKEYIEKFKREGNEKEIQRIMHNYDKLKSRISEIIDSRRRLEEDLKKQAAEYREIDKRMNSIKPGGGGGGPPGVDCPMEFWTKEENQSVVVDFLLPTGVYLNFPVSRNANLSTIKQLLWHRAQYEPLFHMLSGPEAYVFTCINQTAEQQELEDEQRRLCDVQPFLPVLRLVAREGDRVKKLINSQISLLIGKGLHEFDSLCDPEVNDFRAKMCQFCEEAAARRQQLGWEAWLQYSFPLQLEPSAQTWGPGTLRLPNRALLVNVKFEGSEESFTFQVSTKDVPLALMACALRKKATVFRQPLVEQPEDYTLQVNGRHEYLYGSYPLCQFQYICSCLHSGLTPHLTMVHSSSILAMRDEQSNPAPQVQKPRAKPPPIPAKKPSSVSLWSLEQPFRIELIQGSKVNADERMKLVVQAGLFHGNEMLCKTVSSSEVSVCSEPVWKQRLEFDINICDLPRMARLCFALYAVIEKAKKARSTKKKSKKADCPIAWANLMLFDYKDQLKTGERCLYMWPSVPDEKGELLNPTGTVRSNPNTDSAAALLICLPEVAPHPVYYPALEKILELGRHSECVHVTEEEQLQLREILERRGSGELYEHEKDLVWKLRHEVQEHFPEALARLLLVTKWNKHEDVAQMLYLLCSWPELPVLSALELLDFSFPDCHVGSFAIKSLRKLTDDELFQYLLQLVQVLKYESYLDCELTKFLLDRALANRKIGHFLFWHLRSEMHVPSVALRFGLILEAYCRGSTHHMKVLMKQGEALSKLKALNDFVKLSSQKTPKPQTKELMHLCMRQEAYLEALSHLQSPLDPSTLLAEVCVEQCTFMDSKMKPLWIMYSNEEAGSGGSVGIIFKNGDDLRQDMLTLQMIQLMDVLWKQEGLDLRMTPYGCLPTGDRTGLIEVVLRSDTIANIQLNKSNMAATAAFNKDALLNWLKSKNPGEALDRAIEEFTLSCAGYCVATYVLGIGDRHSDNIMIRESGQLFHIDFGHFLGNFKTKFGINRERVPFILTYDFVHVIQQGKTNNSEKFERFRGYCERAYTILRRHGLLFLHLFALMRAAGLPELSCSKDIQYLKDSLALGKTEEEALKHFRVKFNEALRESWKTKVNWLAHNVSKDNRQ
- protocol-notes: PI3K delta kinase assay (Kinase-Glo luminescence)
- Assay type: biochemical
- particulars: read-out: EPK_PI3Kdelta/IC50
quantity-measured: pIC50
// scale note: pIC50 = -log10(conc_M); give the bare number

Solved cases below.
COc1ncc(-c2ccc3ncc4c(c3c2)n(-c2ccc(N3CC[C@H](O)C3)nc2C)c(=O)n4C)c(OC)n1    7.96
CNc1ncc(-c2ccc3ncc4c(c3c2)n(-c2ccc(N3CC[C@H](O)C3)nc2C)c(=O)n4C)cn1    8.05

-- ask Item COc1ccc(-n2c(=O)n(C)c3cnc4ccc(-c5ccc6nccn6c5)cc4c32)c(OC)n1 has what recorded pIC50?
-- reply 6.72

-- ask Item CCOc1ccc(-c2ccc3ncc4c(c3c2)n(-c2ccc(OCCOC)nc2C)c(=O)n4C)cn1 has what recorded pIC50?
-- reply 6.13

-- ask Item CNc1ncc(-c2ccc3ncc4c(c3c2)n(-c2ccc(N3CC[C@H](O)C3)nc2C)c(=O)n4C)cc1Cl has what recorded pIC50?
-- reply 8.30

====

- tgt: PI3K alfa (Homo sapiens, UniProt P42336)
- Construct: His tag (C); made in house; host or cells: baculovirus BV1075; Tn5 (Trichoplusia ni) or TiniPro insect cells
- Sequence (P42336 with tags, fused parts or gaps limits assumed): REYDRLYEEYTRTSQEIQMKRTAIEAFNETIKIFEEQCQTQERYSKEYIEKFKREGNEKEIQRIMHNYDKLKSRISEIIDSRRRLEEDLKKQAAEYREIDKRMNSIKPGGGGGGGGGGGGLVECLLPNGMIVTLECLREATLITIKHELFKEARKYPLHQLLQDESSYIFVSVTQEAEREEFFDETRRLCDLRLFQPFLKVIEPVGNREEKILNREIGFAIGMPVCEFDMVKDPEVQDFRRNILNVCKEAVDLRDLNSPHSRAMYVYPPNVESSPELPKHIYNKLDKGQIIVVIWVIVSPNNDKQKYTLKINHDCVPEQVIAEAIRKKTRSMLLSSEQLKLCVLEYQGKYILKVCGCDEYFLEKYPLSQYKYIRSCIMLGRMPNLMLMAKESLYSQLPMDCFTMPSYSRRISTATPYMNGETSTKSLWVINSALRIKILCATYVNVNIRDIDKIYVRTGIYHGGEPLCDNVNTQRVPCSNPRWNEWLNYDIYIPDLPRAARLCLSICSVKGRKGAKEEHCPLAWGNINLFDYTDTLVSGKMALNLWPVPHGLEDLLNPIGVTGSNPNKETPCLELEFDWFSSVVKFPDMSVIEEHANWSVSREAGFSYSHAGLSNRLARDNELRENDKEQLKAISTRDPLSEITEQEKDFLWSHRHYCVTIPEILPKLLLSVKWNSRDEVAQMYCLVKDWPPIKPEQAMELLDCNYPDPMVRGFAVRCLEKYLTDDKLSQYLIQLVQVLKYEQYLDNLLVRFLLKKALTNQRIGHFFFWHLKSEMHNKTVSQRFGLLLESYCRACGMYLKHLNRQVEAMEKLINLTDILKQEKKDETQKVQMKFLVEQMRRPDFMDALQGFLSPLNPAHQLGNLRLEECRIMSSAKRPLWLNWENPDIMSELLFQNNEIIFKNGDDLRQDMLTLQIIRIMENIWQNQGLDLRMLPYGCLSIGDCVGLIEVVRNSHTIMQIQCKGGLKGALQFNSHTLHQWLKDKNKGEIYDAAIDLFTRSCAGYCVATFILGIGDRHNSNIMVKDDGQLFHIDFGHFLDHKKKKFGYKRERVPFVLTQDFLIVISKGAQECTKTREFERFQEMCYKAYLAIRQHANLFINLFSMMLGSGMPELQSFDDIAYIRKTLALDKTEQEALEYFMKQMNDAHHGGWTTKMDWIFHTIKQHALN
- protocol-notes: PI3K alpha kinase assay (Kinase-Glo luminescence)
- Type: biochemical
- particulars: read-out: EPK_PI3Kalfa/IC50
quantity-measured: pIC50
// scale note: pIC50 = -log10(conc_M); give the bare number

Solved cases below.
CNc1ncc(-c2ccc3ncc4c(c3c2)n(-c2ccc(N3CCC(OC)C3)nc2C)c(=O)n4C)cn1 (stereo not shown)    7.47
Cc1ccc(-n2c(=O)n(C)c3cnc4ccc(-c5cncc(NC(C)C)c5)cc4c32)c(C)n1    7.43
CCOc1cc(-c2ccc3ncc4c(c3c2)n(-c2cccnc2C)c(=O)n4C)cnc1COC    6.57
Cc1cc(F)ncc1-n1c(=O)n(C)c2cnc3ccc(-c4cnc(N)c(C(F)(F)F)c4)cc3c21    7.85
Cc1nc(N2CC(F)(F)C2)ccc1-n1c(=O)n(C)c2cnc3ccc(-c4cncc(C(C)(C)O)c4)cc3c21    8.00

-- ask Item CCNc1ncc(-c2ccc3ncc4c(c3c2)n(-c2ccc(F)nc2C)c(=O)n4C)cn1 has what recorded pIC50?
-- reply 7.19

-- ask Item CCOc1ccc(-c2ccc3ncc4c(c3c2)n(-c2cncc(C)c2)c(=O)n4C)cn1 has what recorded pIC50?
-- reply 7.11

====

- protocol-notes: High-throughput equilibrium solubility at pH 6.8
- Type: physicochemical
- particulars: pH 6.8, aqueous buffer, thermodynamic from solid; read-out: HT-Eq Sol/pH 6.8
quantity-measured: log10 of solubility thermodynamic (log10 of the value in µg/mL)
A difference of one corresponds to tenfold solubility thermodynamic; all values are log10 with solubility thermodynamic in µg/mL.

CNc1ccc(-c2ccc3ncc4c(c3c2)n(-c2cnc(F)cc2C)c(=O)n4C)cn1    1.74

-- ask Item CCOc1ccc(-c2ccc3ncc4c(c3c2)n(-c2ccc(N(C)C)nc2C)c(=O)n4C)cn1 has what recorded log10 of solubility thermodynamic?
-- reply 0.70

-- ask Item CCNc1cc(-c2ccc3ncc4c(c3c2)n(-c2ccc(N3CCC3)nc2C)c(=O)n4C)cnc1CO has what recorded log10 of solubility thermodynamic?
-- reply 1.76

====

- tgt: PI3K delta (Homo sapiens)
- Construct: for the full-length p110-d subunit are generated and fused by overlapping PCR; His tag (C); made in house; host or cells: baculovirus BV1060; Tn5 (Trichoplusia ni) or TiniPro insect cells
- protocol-notes: PI3K delta kinase assay (Kinase-Glo luminescence)
- Assay type: biochemical
- particulars: read-out: EPK_PI3Kdelta/IC50
Label key: Condition met means IC50 under 60 nM; Condition not met means IC50 of 60 nM or more.

Consider the worked cases shown below.
CNc1ncc(-c2ccc3ncc4c(c3c2)n(-c2ccc(N3CCC(O)C3)nc2C)c(=O)n4C)cn1 (stereo not drawn)    Condition met
COCC(=O)Nc1ccc(-n2c(=O)n(C)c3cnc4ccc(-c5cncc(OC(C)C)c5)cc4c32)c(C)n1    Condition not met

-- ask Find out if reported IC50 for CCNc1cc(-c2ccc3ncc4c(c3c2)n(-c2ccc(N3CC(F)(F)C(F)(F)C3)nc2C)c(=O)n4C)cnc1CO is less than 60 nM
-- reply Condition met

-- ask Find out if reported IC50 for Cc1nc(N2CC(F)(F)C(F)(F)C2)ccc1-n1c(=O)n(C)c2cnc3ccc(-c4cnc(N)c(CO)c4)cc3c21 is less than 60 nM
-- reply Condition met

-- ask Find out if reported IC50 for CNc1ncc(-c2ccc3ncc4c(c3c2)n(-c2ccc(F)nc2C)c(=O)n4C)cc1F is less than 60 nM
-- reply Condition met

====

- tgt: PI3K delta (Homo sapiens, UniProt O00329)
- Construct: for the full-length p110-d subunit are generated and fused by overlapping PCR; His tag (C); made in house; host or cells: baculovirus BV1060; Tn5 (Trichoplusia ni) or TiniPro insect cells
- protocol-notes: PI3K delta kinase assay (Kinase-Glo luminescence)
- Assay type: biochemical
- particulars: read-out: PI3Kdelta/IC50
- Procedure: In a more preferred assay, the kinase reaction is performed in a final volume of 10 μL per well of a low volume non binding CORNING, 384 well black plate (Cat. No. #3676). The final concentrations of ATP and phosphatidyl inositol (PI) in the assay are 1 μM and 10 μg/mL respectively. The reaction is started by the addition of ATP. The components of the assay are added per well as follows: […]
quantity-measured: pIC50
// scale note: pIC50 = -log10(conc_M); give the bare number

Cc1cccnc1-n1c(=O)n(C)c2cnc3ccc(-c4cnc(N)c(C(F)(F)F)c4)cc3c21    7.68
Cc1ncccc1-n1c(=O)n(C)c2cnc3ccc(-c4ccc(C(N)=O)cc4)cc3c21    7.03
Cc1ncccc1-n1c(=O)n(C)c2cnc3ccc(-c4cnc(N)c(C(F)(F)F)c4)cc3c21    7.92
COc1ccc(-c2ccc3ncc4c(c3c2)n(-c2cccnc2)c(=O)n4C)cn1    7.41

-- ask Item Cn1c(=O)n(-c2cccnc2F)c2c3cc(-c4cnc5[nH]ccc5c4)ccc3ncc21 has what recorded pIC50?
-- reply 7.11

-- ask Item COc1ccc(-c2ccc3ncc4c(c3c2)n(-c2cccnc2C)c(=O)n4C)cc1OC has what recorded pIC50?
-- reply 7.43

-- ask Item COc1ccc(-c2ccc3ncc4c(c3c2)n(-c2ncccc2C)c(=O)n4C)cn1 has what recorded pIC50?
-- reply 6.60

-- ask Item Cc1ncccc1-n1c(=O)n(C)c2cnc3ccc(-c4ccc(CO)nc4)cc3c21 has what recorded pIC50?
-- reply 7.23

====

- System: PKB Ser473 phosphorylation in Rat1-myr-HA-p110 beta cells
- protocol-notes: Reverse protein array, PKB Ser473 phosphorylation in Rat1-myr-HA-p110 beta cells
- Format: cell-based
- particulars: Rattus norvegicus, 0.5 h, 30 minutes compound incubation, read-out: p-PKB/IC50_beta
quantity-measured: pIC50
// scale note: pIC50 = -log10(conc_M); give the bare number

Solved cases below.
CCOc1cc(-c2ccc3ncc4c(c3c2)n(-c2ccc(N3CCC3)nc2C)c(=O)n4C)cnc1COC    7.01
Cc1cc(F)ncc1-n1c(=O)n(C)c2cnc3ccc(-c4cnc(N)c(C(F)(F)F)c4)cc3c21    7.18
COc1ncc(-c2ccc3ncc4c(c3c2)n(-c2ccc(N3CC(O)C3)nc2C)c(=O)n4C)c(OC)n1    6.68

# next compound below
-- ask Item COc1ccc(-n2c(=O)n(C)c3cnc4ccc(-c5cncc(N6CCC6)c5)cc4c32)c(OC)n1 has what recorded pIC50?
-- reply 7.77

====

- tgt: PI3K alfa (Homo sapiens, UniProt P42336)
- Construct: His tag (C); made in house; host or cells: baculovirus BV1075; Tn5 (Trichoplusia ni) or TiniPro insect cells
- protocol-notes: PI3K alpha kinase assay (Kinase-Glo luminescence)
- Format: biochemical
- particulars: read-out: PI3Kalfa/IC50
- Description: In a more preferred assay, the kinase reaction is performed in a final volume of 10 μL per well of a low volume non binding CORNING, 384 well black plate (Cat. No. #3676). The final concentrations of ATP and phosphatidyl inositol (PI) in the assay are 1 μM and 10 μg/mL respectively. […] IC50 is determined by a four parameter curve fitting routine that comes along with “excel fit”. […] Alternatively, IC50 values are calculated using idbsXLfit model 204, which is a 4 parameter logistic model.
quantity-measured: IC50 (nM)
Could you give me the number in nM? Just the number is fine.

Cc1nc(F)ccc1-n1c(=O)n(C)c2cnc3ccc(-c4cnc(N)c(C(F)(F)F)c4)cc3c21 [Example 7.1]    4
Cc1ncccc1-n1c(=O)n(C)c2cnc3ccc(-c4ccc(C(N)=O)cc4)cc3c21 [Example 2.3]    20
Cn1c(=O)n(-c2cccnc2)c2c3cc(-c4ccc(CO)nc4)ccc3ncc21 [Example 5.1]    74

# next compound below
-- ask Item COc1ncccc1-n1c(=O)n(C)c2cnc3ccc(-c4cnc(N)c(C(F)(F)F)c4)cc3c21 [Example 1.3] has what recorded IC50?
-- reply 10
